Test system: HEK-293T
Test method notes: Incucyte cell viability with HEK293T; further: unitless GR value; below 1 slowed growth and below 0 cell loss
Assay type: toxicity, cell-based
Condition notes: human, 18 h, 10 µM, compound concentration 10 uM, replicate number 2
I'd appreciate it if you could label each record using Growth Rate and these ranges: bin 0 = under 0.5, bin 1 = from 0.5 up to 0.9, bin 2 = 0.9 and over

Sample answers from the record:
>>> discrete_label("Cn1c2ccccc2c2c3c(c4c5ccccc5n(CCC#N)c4c21)CNC3=O")
"bin 0"
>>> discrete_label("Cc1c[nH]c(-c2cnc(NCCNc3ccc(C#N)cn3)nc2-c2ccc(Cl)cc2Cl)n1")
"bin 1"
>>> discrete_label("CCc1ccc(N(CC(C)C)S(=O)(=O)c2ccc(OCC3CCOCC3)c(CO)c2)cc1")
"bin 0"
>>> discrete_label("CC(C)c1ccc(CC(=O)N[C@H](C)c2ccc(OCC(F)(F)F)cn2)cc1 [SUVECALTAMIDE]")
"bin 2"
>>> discrete_label("COc1cc(N(C)c2ccnc3ccc(C(F)(F)F)cc23)cc(OC)c1OC")
"bin 0"
>>> discrete_label("CC(=O)c1c(C)c2cnc(Nc3ccc(N4CCNCC4)cn3)nc2n(C2CCCC2)c1=O")
"bin 1"
>>> discrete_label("N#CN1CC[C@@H](C(=O)Nc2nc3c(s2)CN(C(=O)CN=[N+]=[N-])CC3)C1")
"bin 1"
>>> discrete_label("CCN1C(=O)/C(=C(\\NC2CCN(C)CC2)c2ccc3c(c2)OCO3)c2cc(C(C)=O)ccc21")
"bin 1"
>>> discrete_label("Cc1cc(SCc2sc(-c3ccc(C(F)(F)F)cc3)nc2C)ccc1OCC(=O)O")
"bin 2"
>>> discrete_label("CCn1c(-c2nonc2N)nc2c(C#CC(C)(C)O)ncc(OCC3CCCNC3)c21 (stereo not drawn)")
"bin 0"

Ask: Returns: class label. Input: CC(C)C[C@H](NC(=O)c1cc2ccccc2s1)C(=O)N1CCN(C(=O)[C@H](CO)NS(=O)(=O)c2ccc(Cl)cc2Cl)CC1
Result: bin 0

Ask: Please report the category associated with CC(C)(O)c1cn(-c2ccc(-c3cccc(S(C)(=O)=O)c3)cc2)c(C(C)(C)c2ccccc2Cl)n1 , nothing else.
Result: bin 1

Ask: // bin(item) where item = COc1ccc(-c2coc3cc(O)cc(O)c3c2=O)cc1
Result: bin 2

Ask: Which class is correct for the following compound? CC[C@H](Nc1ncnc2[nH]cnc12)c1nc2cccc(F)c2c(=O)n1-c1ccccc1
Result: bin 0

Ask: Band for O=C(NS(=O)(=O)N1CCC1)c1cc(C2CC2)c(OCC23CC4CC(CC(C4)C2)C3)cc1F ?
Result: bin 2

Ask: Which category fits this record: Fc1ccc(-c2c3cccc(C(F)(F)F)c3nn2Cc2ccc(F)cc2Cl)cc1
Result: bin 1

Ask: # bin lookup: classify Cc1onc(O)c1CC(N)C(=O)O [(R,S)-AMPA] by its Growth Rate
Result: bin 1
